target desc: RORγ (Homo sapiens)
Sequence (P51449 whole entry, looked up, the tested form may be a part): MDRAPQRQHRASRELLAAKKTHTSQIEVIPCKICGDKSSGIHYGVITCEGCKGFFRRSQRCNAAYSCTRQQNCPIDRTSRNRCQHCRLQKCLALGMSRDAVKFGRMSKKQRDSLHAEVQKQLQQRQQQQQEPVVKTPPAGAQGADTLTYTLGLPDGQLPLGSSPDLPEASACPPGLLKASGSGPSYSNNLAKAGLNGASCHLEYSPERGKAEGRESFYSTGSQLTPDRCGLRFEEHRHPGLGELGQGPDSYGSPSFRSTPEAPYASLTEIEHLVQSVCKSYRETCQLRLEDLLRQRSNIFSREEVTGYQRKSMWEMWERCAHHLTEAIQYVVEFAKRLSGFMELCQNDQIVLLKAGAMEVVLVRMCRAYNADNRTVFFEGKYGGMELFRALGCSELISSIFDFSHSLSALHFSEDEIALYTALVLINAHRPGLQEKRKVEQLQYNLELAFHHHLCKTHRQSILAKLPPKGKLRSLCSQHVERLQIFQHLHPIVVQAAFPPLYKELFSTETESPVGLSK
assay comment: RORγ Gal4 Reporter Gene Assay
Type: cell-based
assay conditions: firefly (FF) luciferase, 293T cells; read-out: pIC50 (FF) (converted)
measure: IC50 (nM)
Write the value in nM as a bare number.

Here is how some compounds turned out for IC50.
CC(C)(C)NS(=O)(=O)c1ccc(-c2sc(C(=O)N[C@H]3C[C@H](C(=O)O)C3)nc2CC2CCCCC2)c(OC(F)F)c1Cl 10
COc1ccc(-c2sc(C(=O)N[C@H]3C[C@H](C(=O)O)C3)nc2CC2CCCCC2)c2ccccc12 251
C[C@H](NS(=O)(=O)c1ccc(-c2sc(C(=O)NC3CCS(=O)(=O)CC3)nc2CC2CCCC2)c(Cl)c1Cl)C(F)(F)F 1.26

Q. Input CCCc1nc(C(=O)N[C@H]2C[C@H](C(=O)O)C2)sc1-c1ccc(S(=O)(=O)NC(C)(C)C)c(Cl)c1Cl , output reported IC50.
A. 126
